All values here come from ChEMBL document CHEMBL2434844.

Test system: Aspergillus flavus
Measurement Description: Antifungal activity against Aspergillus flavus ATCC 11495 at 10 mg/disc after 48 hrs by disc-diffusion method
Type: functional
Activity calls are given as the source filed them. No cut-off for these calls is given here.
Observed Property: diameter of the inhibition zone (DIZ)

>  <Smiles Data>
N#Cc1c(-c2ccc(Br)cc2)[nH]c(=S)n2c(=O)c(=O)[nH]nc12

>  <Observed Result>
17 mm

$$$$
>  <Smiles Data>
N#Cc1c(NN)nc(=S)[nH]c1-c1ccc(F)cc1

>  <Observed Result>
13 mm

$$$$
>  <Smiles Data>
Cc1cc(C)n(-c2nc(=S)[nH]c(-c3ccc(F)cc3)c2C#N)n1

>  <Observed Result>
inactive

$$$$
>  <Smiles Data>
Cc1nc2c(C#N)c(-c3ccc(F)cc3)[nH]c(=S)n2n1

>  <Observed Result>
7 mm

$$$$
>  <Smiles Data>
N#Cc1c(-c2ccc(F)cc2)[nH]c(=S)n2nnnc12

>  <Observed Result>
inactive

$$$$
>  <Smiles Data>
COc1ccc(/C=N/Nc2nc(=S)[nH]c(-c3ccc(Br)cc3)c2C#N)cc1

>  <Observed Result>
14 mm

$$$$

----------
Test system: Staphylococcus aureus
Measurement Description: Antibacterial activity against Staphylococcus aureus ATCC 12600 at 10 mg/disc after 48 hrs by disc-diffusion method
Type: functional
Active and inactive are the calls of the source. No cut-off for these calls is given here.

>  <Smiles Data>
COc1ccc(/C=N/Nc2nc(=S)[nH]c(-c3ccc(F)cc3)c2C#N)cc1

>  <Target Or System>
Staphylococcus aureus

>  <diameter of the inhibition zone (DIZ)>
23 mm

$$$$
>  <Smiles Data>
N#Cc1c(-c2ccc(Br)cc2)[nH]c(=S)n2ncnc12

>  <Target Or System>
Staphylococcus aureus

>  <diameter of the inhibition zone (DIZ)>
6 mm

$$$$
>  <Smiles Data>
COc1cc(-c2[nH]c(=S)n3nnnc3c2C#N)cc(OC)c1OC

>  <Target Or System>
Staphylococcus aureus

>  <diameter of the inhibition zone (DIZ)>
14 mm

$$$$
>  <Smiles Data>
Cc1nnc2c(C#N)c(-c3ccc(Br)cc3)[nH]c(=S)n12

>  <Target Or System>
Staphylococcus aureus

>  <diameter of the inhibition zone (DIZ)>
inactive

$$$$
>  <Smiles Data>
N#Cc1c(-c2ccc(Br)cc2)[nH]c(=S)n2nnnc12

>  <Target Or System>
Staphylococcus aureus

>  <diameter of the inhibition zone (DIZ)>
14 mm

$$$$
>  <Smiles Data>
N#Cc1c(N/N=C/c2ccccc2)nc(=S)[nH]c1-c1ccc(F)cc1

>  <Target Or System>
Staphylococcus aureus

>  <diameter of the inhibition zone (DIZ)>
24 mm

$$$$
>  <Smiles Data>
COc1cc(-c2[nH]c(=S)n3c(=O)c(=O)[nH]nc3c2C#N)cc(OC)c1OC

>  <Target Or System>
Staphylococcus aureus

>  <diameter of the inhibition zone (DIZ)>
14 mm

$$$$
>  <Smiles Data>
COc1ccc(/C=N/Nc2nc(=S)[nH]c(-c3cc(OC)c(OC)c(OC)c3)c2C#N)cc1

>  <Target Or System>
Staphylococcus aureus

>  <diameter of the inhibition zone (DIZ)>
17 mm

$$$$
>  <Smiles Data>
N#Cc1c(N/N=C/c2ccc(F)cc2)nc(=S)[nH]c1-c1ccc(F)cc1

>  <Target Or System>
Staphylococcus aureus

>  <diameter of the inhibition zone (DIZ)>
19 mm

$$$$
>  <Smiles Data>
N#Cc1c(-c2ccc(Br)cc2)[nH]c(=S)n2c(=S)[nH]nc12

>  <Target Or System>
Staphylococcus aureus

>  <diameter of the inhibition zone (DIZ)>
inactive

$$$$
